- testSummary: NCI Yeast Anticancer Drug Screen. Data for the cln2 rad14 strain (AID 165);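 note: 0% = growth equal to vehicle treated cultures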
- conditionSummary: S. cerevisiae cln2 rad14 strain, hits give high values; at 50.0 µM unless noted
This is part of a sample that, as a whole, favours compounds with a hit. Of some 79,000 tested, about 15% had one in any assay.
Below: a set of entries, each annotated with reported growth inhibition.
I only need the number, in %, no unit after it.

Determine from records and report growth inhibition for CC1CN=C(N(C(=O)Nc2ccccc2)C2CCCCC2)S1 (centres undefined)
5.35

----------
Below: a set of entries, each annotated with reported growth inhibition.
- testSummary: NCI Yeast Anticancer Drug Screen. Data for the mlh1 rad18 strain (AID 175)
- conditionSummary: S. cerevisiae mlh1 rad18 strain growth inhibition, hits give high values; at 50.0 µM unless noted
Compounds without any hit were thinned out: in the full panel of roughly 79,000, 15% have a hit.
I only need the number, in %, no unit after it.

Some compounds with known growth inhibition results, for comparison:
O=[N+]([O-])c1ccc(-n2nnc(C3=NCCCN3)c2-c2ccc(Cl)cc2)cc1; -19.6
C1=C(c2ccccc2)N(C2CCCCC2)C(c2ccccc2)=CN1Cc1ccccc1; 70.8
CC(C)C1N(N2C(=O)CS(=O)(=O)C2C(C)C)C(=O)CS1(=O)=O (stereo unspecified); 24.3
COc1ccc(/C(C)=C\C(=O)O)cc1; 7.15
CCC(=O)Cc1nc2n(c1O)/C(=N/C(=O)Nc1ccc(Cl)cc1)N=N2; 11.6

Determine from records and report growth inhibition for "CCSc1nnc(SCC)c2c1ncn2CC"
9.05

The measurements presented in this section are drawn from PubChem BioAssay (NCI).
